- Tested on: human PBMC T cells
- method.notes: cells
- Format: cell-based
- condition.label: Homo sapiens, 72 h, read-out: T-cells (IC50)
value.type: IC50

>  <molecule>
COc1cc(NC(=O)Nc2cccc(CNC(=O)OC(CCN(CC(C)C)CC3CC3)c3ccccc3)c2)ccc1-c1cnco1 (stereo not drawn)

>  <tgt>
human PBMC T cells

>  <value.type>
IC50

>  <measured.result>
> 1000 nM

$$$$
>  <molecule>
COc1cc(NC(=O)Nc2cccc(CNC(=O)OC[C@@H](CC#N)NC(=O)OC(C)(C)C)c2)ccc1-c1cnco1

>  <tgt>
human PBMC T cells

>  <value.type>
IC50

>  <measured.result>
100 to 1000 nM

$$$$
>  <molecule>
COc1cc(NC(=O)Nc2cccc(CNC(=O)O[C@H](CN3CCCC3)c3ccccc3)c2)ccc1-c1cnco1

>  <tgt>
human PBMC T cells

>  <value.type>
IC50

>  <measured.result>
100 to 1000 nM

$$$$
>  <molecule>
CC[C@H](CCC#N)OC(=O)NCc1cccc(NC(=O)Nc2ccc(-c3cnco3)c(OC)c2)c1

>  <tgt>
human PBMC T cells

>  <value.type>
IC50

>  <measured.result>
100 to 1000 nM

$$$$
>  <molecule>
CCCN(CCC(OC(=O)NCc1cccc(NC(=O)Nc2ccc(-c3cnco3)c(OC)c2)c1)c1ccccc1)CC1CC1 (stereo not drawn)

>  <tgt>
human PBMC T cells

>  <value.type>
IC50

>  <measured.result>
> 1000 nM

$$$$
>  <molecule>
COc1cc(NC(=O)Nc2cccc(CNC(=O)OC(CC#N)CN(C)C)c2)ccc1-c1cnco1 (stereo not drawn)

>  <tgt>
human PBMC T cells

>  <value.type>
IC50

>  <measured.result>
> 1000 nM

$$$$
>  <molecule>
CCC(COC(N)=O)OC(=O)NCc1cccc(NC(=O)Nc2ccc(-c3cnco3)c(OC)c2)c1 (stereo not drawn)

>  <tgt>
human PBMC T cells

>  <value.type>
IC50

>  <measured.result>
100 to 1000 nM

$$$$
>  <molecule>
CC[C@@H](CC#N)OC(=O)NCc1cccc(NC(=O)Nc2ccc(-c3cnco3)c(OC)c2)c1

>  <tgt>
human PBMC T cells

>  <value.type>
IC50

>  <measured.result>
100 to 1000 nM

$$$$
>  <molecule>
CCN(CC(C)C)CC(OC(=O)NCc1cccc(NC(=O)Nc2ccc(-c3cnco3)c(OC)c2)c1)c1ccccc1 (stereo not drawn)

>  <tgt>
human PBMC T cells

>  <value.type>
IC50

>  <measured.result>
> 1000 nM

$$$$
>  <molecule>
COc1cc(NC(=O)Nc2cccc(CNC(=O)OC[C@@H](CC#N)N(C)C)c2)ccc1-c1cnco1

>  <tgt>
human PBMC T cells

>  <value.type>
IC50

>  <measured.result>
100 to 1000 nM

$$$$
>  <molecule>
CCC(OC(=O)NCc1cccc(NC(=O)Nc2ccc(-c3cnco3)c(OC)c2)c1)C(C)(C)C#N (stereo not drawn)

>  <tgt>
human PBMC T cells

>  <value.type>
IC50

>  <measured.result>
100 to 1000 nM

$$$$
>  <molecule>
COc1cc(NC(=O)Nc2cccc(CNC(=O)OCCOCCC#N)c2)ccc1-c1cnco1

>  <tgt>
human PBMC T cells

>  <value.type>
IC50

>  <measured.result>
100 to 1000 nM

$$$$
>  <molecule>
CCCCC(CC#N)OC(=O)NCc1cccc(NC(=O)Nc2ccc(-c3cnco3)c(OC)c2)c1 (stereo not drawn)

>  <tgt>
human PBMC T cells

>  <value.type>
IC50

>  <measured.result>
100 to 1000 nM

$$$$
>  <molecule>
COCC(C)OC(=O)NCc1cccc(NC(=O)Nc2ccc(-c3cnco3)c(OC)c2)c1 (stereo not drawn)

>  <tgt>
human PBMC T cells

>  <value.type>
IC50

>  <measured.result>
100 to 1000 nM

$$$$
>  <molecule>
CCN(CC)CC(OC(=O)Nc1ccc(NC(=O)Nc2ccc(-c3cnco3)c(OC)c2)cc1)C(C)(C)C (stereo not drawn)

>  <tgt>
human PBMC T cells

>  <value.type>
IC50

>  <measured.result>
100 to 1000 nM

$$$$
>  <molecule>
CCC(CC#N)OC(=O)N[C@@H](C)c1cccc(NC(=O)Nc2ccc(C#N)c(OC)c2)c1 (stereo partly drawn)

>  <tgt>
human PBMC T cells

>  <value.type>
IC50

>  <measured.result>
100 to 1000 nM

$$$$
>  <molecule>
COc1cc(NC(=O)Nc2cccc(CNC(=O)OC(CN3CCSCC3)c3ccccc3)c2)ccc1-c1cnco1 (stereo not drawn)

>  <tgt>
human PBMC T cells

>  <value.type>
IC50

>  <measured.result>
100 to 1000 nM

$$$$
>  <molecule>
CCC(CO)OC(=O)N[C@H](C)c1cccc(NC(=O)Nc2ccc(C#N)c(OC)c2)c1 (stereo partly drawn)

>  <tgt>
human PBMC T cells

>  <value.type>
IC50

>  <measured.result>
> 1000 nM

$$$$
>  <molecule>
COc1cc(NC(=O)Nc2cccc(CNC(=O)OC(CN3CC[S+]([O-])CC3)c3ccccc3)c2)ccc1-c1cnco1 (stereo not drawn)

>  <tgt>
human PBMC T cells

>  <value.type>
IC50

>  <measured.result>
< 100 nM

$$$$
>  <molecule>
COc1cc(NC(=O)Nc2cccc(CNC(=O)O[C@@H](CO)CCC#N)c2)ccc1-c1cnco1

>  <tgt>
human PBMC T cells

>  <value.type>
IC50

>  <measured.result>
100 to 1000 nM

$$$$
>  <molecule>
COc1cc(NC(=O)Nc2cccc(CNC(=O)OC3CCC[C@H]3N3CCOCC3)c2)ccc1-c1cnco1 (stereo partly drawn)

>  <tgt>
human PBMC T cells

>  <value.type>
IC50

>  <measured.result>
> 1000 nM

$$$$
>  <molecule>
CCC(COS(N)(=O)=O)OC(=O)NCc1cccc(NC(=O)Nc2ccc(-c3cnco3)c(OC)c2)c1 (stereo not drawn)

>  <tgt>
human PBMC T cells

>  <value.type>
IC50

>  <measured.result>
100 to 1000 nM

$$$$
>  <molecule>
COc1cc(NC(=O)Nc2cccc(CNC(=O)O[C@H](CN3CCOCC3)c3ccccc3)c2)ccc1-c1cnco1

>  <tgt>
human PBMC T cells

>  <value.type>
IC50

>  <measured.result>
100 to 1000 nM

$$$$
>  <molecule>
COc1cc(NC(=O)Nc2cccc(CNC(=O)O[C@@H](CO)CSC)c2)ccc1-c1cnco1

>  <tgt>
human PBMC T cells

>  <value.type>
IC50

>  <measured.result>
100 to 1000 nM

$$$$
>  <molecule>
CCC(CCCCO)OC(=O)NCc1cccc(NC(=O)Nc2ccc(-c3cnco3)c(OC)c2)c1 (stereo not drawn)

>  <tgt>
human PBMC T cells

>  <value.type>
IC50

>  <measured.result>
100 to 1000 nM

$$$$
>  <molecule>
CCCN(CC1CC1)CC(OC(=O)NCc1cccc(NC(=O)Nc2ccc(-c3cnco3)c(OC)c2)c1)c1ccccc1 (stereo not drawn)

>  <tgt>
human PBMC T cells

>  <value.type>
IC50

>  <measured.result>
> 1000 nM

$$$$
>  <molecule>
COc1cc(NC(=O)Nc2cccc(CNC(=O)OC3COCC3OCC#N)c2)ccc1-c1cnco1 (stereo not drawn)

>  <tgt>
human PBMC T cells

>  <value.type>
IC50

>  <measured.result>
100 to 1000 nM

$$$$
>  <molecule>
CCCN(C)CCC(OC(=O)NCc1cccc(NC(=O)Nc2ccc(-c3cnco3)c(OC)c2)c1)c1ccccc1 (stereo not drawn)

>  <tgt>
human PBMC T cells

>  <value.type>
IC50

>  <measured.result>
100 to 1000 nM

$$$$
>  <molecule>
CCC(CCCO)OC(=O)NCc1cccc(NC(=O)Nc2ccc(-c3cnco3)c(OC)c2)c1 (stereo not drawn)

>  <tgt>
human PBMC T cells

>  <value.type>
IC50

>  <measured.result>
100 to 1000 nM

$$$$
>  <molecule>
CCC(COC)OC(=O)NCc1cccc(NC(=O)Nc2ccc(-c3cnco3)c(OC)c2)c1 (stereo not drawn)

>  <tgt>
human PBMC T cells

>  <value.type>
IC50

>  <measured.result>
100 to 1000 nM

$$$$

----------
- tgt: UniProt:P12268
- method.notes: biochemical
- condition.label: read-out: Ki

>  <compound>
COc1cc(NC(=O)Nc2cccc(CNC(=O)O[C@H](CO)CCO)c2)ccc1-c1cnco1

>  <tgt>
UniProt:P12268

>  <Ki>
0.01 to 0.05 µM

$$$$
>  <compound>
CCCN(CC(C)C)CC(OC(=O)NCc1cccc(NC(=O)Nc2ccc(-c3cnco3)c(OC)c2)c1)c1ccccc1 (centres unmarked)

>  <tgt>
UniProt:P12268

>  <Ki>
> 0.05 µM

$$$$
>  <compound>
COc1cc(NC(=O)Nc2cccc([C@H](C)NC(=O)O[C@@H]3CCOC3)c2)ccc1C#N

>  <tgt>
UniProt:P12268

>  <Ki>
0.01 to 0.05 µM

$$$$
>  <compound>
COc1cc(NC(=O)Nc2cccc(CNC(=O)O[C@H](CN3CCCC3)c3ccccc3)c2)ccc1-c1cnco1

>  <tgt>
UniProt:P12268

>  <Ki>
0.01 to 0.05 µM

$$$$
>  <compound>
CCN(CC)CCC(OC(=O)NCc1cccc(NC(=O)Nc2ccc(-c3cnco3)c(OC)c2)c1)C(F)(F)F (centres unmarked)

>  <tgt>
UniProt:P12268

>  <Ki>
< 0.01 µM

$$$$
>  <compound>
CCOc1cc(NC(=O)Nc2cccc([C@H](C)NC(=O)O[C@H](CC)CC#N)c2)ccc1C#N

>  <tgt>
UniProt:P12268

>  <Ki>
> 0.05 µM

$$$$
>  <compound>
COc1cc(NC(=O)Nc2cccc(CNC(=O)OC[C@@H](CC#N)NC(=O)OC(C)(C)C)c2)ccc1-c1cnco1

>  <tgt>
UniProt:P12268

>  <Ki>
< 0.01 µM

$$$$
>  <compound>
COc1cc(NC(=O)Nc2cccc(CNC(=O)O[C@@H](CC#N)CN3CCOCC3)c2)ccc1-c1cnco1

>  <tgt>
UniProt:P12268

>  <Ki>
< 0.01 µM

$$$$
>  <compound>
CCN(CC1CC1)C[C@@H](OC(=O)NCc1cccc(NC(=O)Nc2ccc(-c3cnco3)c(OC)c2)c1)c1ccccc1

>  <tgt>
UniProt:P12268

>  <Ki>
0.01 to 0.05 µM

$$$$
>  <compound>
CC[C@H](CCN(CC)CC)OC(=O)NCc1cccc(NC(=O)Nc2ccc(-c3cnco3)c(OC)c2)c1

>  <tgt>
UniProt:P12268

>  <Ki>
< 0.01 µM

$$$$
>  <compound>
CCCC(COC)OC(=O)NCc1cccc(NC(=O)Nc2ccc(-c3cnco3)c(OC)c2)c1 (centres unmarked)

>  <tgt>
UniProt:P12268

>  <Ki>
< 0.01 µM

$$$$
>  <compound>
CCC(CO)OC(=O)N[C@H](C)c1cccc(NC(=O)Nc2ccc(C#N)c(OC)c2)c1 (some centres unmarked)

>  <tgt>
UniProt:P12268

>  <Ki>
> 0.05 µM

$$$$
>  <compound>
COc1cc(NC(=O)Nc2cccc(CNC(=O)O[C@@H](CO)CC#N)c2)ccc1-c1cnco1

>  <tgt>
UniProt:P12268

>  <Ki>
< 0.01 µM

$$$$
>  <compound>
CCC(CC#N)OC(=O)N[C@@H](C)c1cccc(NC(=O)Nc2ccc(-c3cnco3)c(OC)c2)c1 (some centres unmarked)

>  <tgt>
UniProt:P12268

>  <Ki>
< 0.01 µM

$$$$
>  <compound>
CC[C@@H](CCO)OC(=O)NCc1cccc(NC(=O)Nc2ccc(-c3cnco3)c(OC)c2)c1

>  <tgt>
UniProt:P12268

>  <Ki>
< 0.01 µM

$$$$
>  <compound>
COc1cc(NC(=O)Nc2cccc(CNC(=O)O[C@H](CO)CC#N)c2)ccc1-c1cnco1

>  <tgt>
UniProt:P12268

>  <Ki>
< 0.01 µM

$$$$
>  <compound>
COc1cc(NC(=O)Nc2cccc(CNC(=O)OC(CC#N)C3CC3)c2)ccc1-c1cnco1 (centres unmarked)

>  <tgt>
UniProt:P12268

>  <Ki>
0.01 to 0.05 µM

$$$$
>  <compound>
COc1cc(NC(=O)Nc2cccc(CNC(=O)OCCN(CCC#N)CCC#N)c2)ccc1-c1cnco1

>  <tgt>
UniProt:P12268

>  <Ki>
< 0.01 µM

$$$$
>  <compound>
CC[C@H](CCO)OC(=O)NCc1cccc(NC(=O)Nc2ccc(-c3cnco3)c(OC)c2)c1

>  <tgt>
UniProt:P12268

>  <Ki>
< 0.01 µM

$$$$
>  <compound>
CCN(CCC(OC(=O)NCc1cccc(NC(=O)Nc2ccc(-c3cnco3)c(OC)c2)c1)c1ccccc1)CC(C)C (centres unmarked)

>  <tgt>
UniProt:P12268

>  <Ki>
> 0.05 µM

$$$$
>  <compound>
COc1cc(NC(=O)Nc2cccc(CNC(=O)OC(CCN(C)CC(C)C)c3ccccc3)c2)ccc1-c1cnco1 (centres unmarked)

>  <tgt>
UniProt:P12268

>  <Ki>
> 0.05 µM

$$$$
>  <compound>
CC[C@H](COC(=O)CN)OC(=O)NCc1cccc(NC(=O)Nc2ccc(-c3cnco3)c(OC)c2)c1

>  <tgt>
UniProt:P12268

>  <Ki>
0.01 to 0.05 µM

$$$$
>  <compound>
COc1cc(NC(=O)Nc2cccc(CNC(=O)O[C@H](CC#N)CN(C)C)c2)ccc1-c1cnco1

>  <tgt>
UniProt:P12268

>  <Ki>
< 0.01 µM

$$$$
>  <compound>
COc1cc(NC(=O)Nc2cccc(CNC(=O)OC(CN(CC(C)C)CC3CC3)c3ccccc3)c2)ccc1-c1cnco1 (centres unmarked)

>  <tgt>
UniProt:P12268

>  <Ki>
> 0.05 µM

$$$$
>  <compound>
CCC(C[N+]1([O-])CCS(=O)(=O)CC1)OC(=O)NCc1cccc(NC(=O)Nc2ccc(-c3cnco3)c(OC)c2)c1 (centres unmarked)

>  <tgt>
UniProt:P12268

>  <Ki>
< 0.01 µM

$$$$
>  <compound>
CCN(CC)C[C@H](CC#N)OC(=O)NCc1cccc(NC(=O)Nc2ccc(-c3cnco3)c(OC)c2)c1

>  <tgt>
UniProt:P12268

>  <Ki>
< 0.01 µM

$$$$
>  <compound>
CC[C@H](COC(N)=O)OC(=O)NCc1cccc(NC(=O)Nc2ccc(-c3cnco3)c(OC)c2)c1

>  <tgt>
UniProt:P12268

>  <Ki>
< 0.01 µM

$$$$
>  <compound>
COc1cc(NC(=O)Nc2cccc(CNC(=O)OC(CC#N)C(C)(C)C)c2)ccc1-c1cnco1 (centres unmarked)

>  <tgt>
UniProt:P12268

>  <Ki>
< 0.01 µM

$$$$
>  <compound>
COc1cc(NC(=O)Nc2cccc(CNC(=O)O[C@@H](CN3CCOCC3)c3ccccc3)c2)ccc1-c1cnco1

>  <tgt>
UniProt:P12268

>  <Ki>
< 0.01 µM

$$$$

The measurements presented in this section are drawn from patent US7087642B2.
